# target_desc: MAPK10 (human) (UniProt P53779)
# Sequence (P53779 whole entry, looked up): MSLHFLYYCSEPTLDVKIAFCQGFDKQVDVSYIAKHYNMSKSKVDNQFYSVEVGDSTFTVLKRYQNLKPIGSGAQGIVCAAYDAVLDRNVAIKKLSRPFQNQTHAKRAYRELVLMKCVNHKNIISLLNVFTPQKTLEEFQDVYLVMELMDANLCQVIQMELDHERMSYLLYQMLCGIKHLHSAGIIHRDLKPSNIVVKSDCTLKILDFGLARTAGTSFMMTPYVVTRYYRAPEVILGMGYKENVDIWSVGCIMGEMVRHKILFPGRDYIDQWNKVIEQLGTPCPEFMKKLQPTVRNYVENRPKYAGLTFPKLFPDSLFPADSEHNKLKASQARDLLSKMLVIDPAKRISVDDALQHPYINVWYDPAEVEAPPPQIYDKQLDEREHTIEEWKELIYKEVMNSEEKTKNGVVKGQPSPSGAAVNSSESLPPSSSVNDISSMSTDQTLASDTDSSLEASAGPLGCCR
# assay_summary: KINOMEscan competition binding
# condition_parameters: compound 10.0 µM
readout_name: kinase still bound, per cent of control (%)
Quick reminder: number only, in %, skip the unit.

QUERY: Which measured kinase still bound, per cent of control value corresponds to OCCCNc1cc(-c2ccnc(Nc3cccc(Cl)c3)n2)ccn1 ?
RESULT: 100

QUERY: Which measured kinase still bound, per cent of control value corresponds to Cc1cc([C@@H](C)Nc2ccccc2C(=O)O)c2nc(N3CCOCC3)cc(=O)n2c1 ?
RESULT: 82

QUERY: Which measured kinase still bound, per cent of control value corresponds to COc1cc(N2CCN(C)CC2)ccc1Nc1nc(N)c(C(=O)c2c(Cl)cccc2Cl)s1 ?
RESULT: 100

QUERY: Which measured kinase still bound, per cent of control value corresponds to Cc1ccc2nc(NCCN)c3ncc(C)n3c2c1 ?
RESULT: 100

QUERY: Which measured kinase still bound, per cent of control value corresponds to O=C(NOC[C@H](O)CO)c1ccc(F)c(F)c1Nc1ccc(I)cc1F ?
RESULT: 90

QUERY: Which measured kinase still bound, per cent of control value corresponds to C[C@@H](Oc1cc(-n2cnc3ccc(CN4CCN(C)CC4)cc32)sc1C(N)=O)c1ccccc1C(F)(F)F ?
RESULT: 100

QUERY: Which measured kinase still bound, per cent of control value corresponds to Nc1ccc(-c2ccc3ncc4ccc(=O)n(-c5cccc(C(F)(F)F)c5)c4c3c2)cn1 ?
RESULT: 78

----------
Consider the following molecules; for each one, report its kinase still bound, per cent of control.
# target_desc: UniProt P42336
# Sequence (P42336 whole entry, looked up): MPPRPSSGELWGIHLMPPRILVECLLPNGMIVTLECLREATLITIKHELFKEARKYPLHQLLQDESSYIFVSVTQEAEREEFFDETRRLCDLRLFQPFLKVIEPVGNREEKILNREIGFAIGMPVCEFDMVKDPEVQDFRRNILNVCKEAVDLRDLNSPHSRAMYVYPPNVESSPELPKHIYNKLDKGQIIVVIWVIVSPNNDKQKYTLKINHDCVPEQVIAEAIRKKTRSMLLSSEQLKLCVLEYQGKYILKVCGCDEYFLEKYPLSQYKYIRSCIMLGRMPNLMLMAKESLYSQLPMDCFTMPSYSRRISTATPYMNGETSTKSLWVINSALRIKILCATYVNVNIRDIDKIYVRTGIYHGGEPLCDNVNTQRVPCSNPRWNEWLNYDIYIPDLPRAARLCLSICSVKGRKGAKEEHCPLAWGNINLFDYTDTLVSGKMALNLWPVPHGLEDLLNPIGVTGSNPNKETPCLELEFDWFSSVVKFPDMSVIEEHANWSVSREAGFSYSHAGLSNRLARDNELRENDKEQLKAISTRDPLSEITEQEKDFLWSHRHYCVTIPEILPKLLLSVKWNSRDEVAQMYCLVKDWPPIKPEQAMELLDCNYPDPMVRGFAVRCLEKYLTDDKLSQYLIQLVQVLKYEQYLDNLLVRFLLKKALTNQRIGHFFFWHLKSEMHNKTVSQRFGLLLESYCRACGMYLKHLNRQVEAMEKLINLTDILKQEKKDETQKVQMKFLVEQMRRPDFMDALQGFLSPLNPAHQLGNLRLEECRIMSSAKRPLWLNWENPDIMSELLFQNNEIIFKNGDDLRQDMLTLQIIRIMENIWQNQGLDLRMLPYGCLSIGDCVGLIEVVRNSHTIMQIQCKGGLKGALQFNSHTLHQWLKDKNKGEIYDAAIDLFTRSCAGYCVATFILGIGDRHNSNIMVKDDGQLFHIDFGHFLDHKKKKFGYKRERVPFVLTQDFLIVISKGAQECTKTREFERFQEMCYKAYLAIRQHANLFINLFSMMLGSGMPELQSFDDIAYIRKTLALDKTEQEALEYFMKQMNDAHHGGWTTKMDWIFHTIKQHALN
# assay_summary: KINOMEscan competition binding
# condition_parameters: compound 10.0 µM
Quick reminder: number only, in %, skip the unit.

QUERY: Which measured kinase still bound, per cent of control value corresponds to O=C1Nc2ccc(I)cc2/C1=C/c1cc(Br)c(O)c(Br)c1 ?
RESULT: 85

QUERY: Which measured kinase still bound, per cent of control value corresponds to O=C(NC1CC1)c1cccc(-c2ccc3c(NC(=O)C4CC4)n[nH]c3c2)c1 ?
RESULT: 99

QUERY: Which measured kinase still bound, per cent of control value corresponds to CCN1CCN(Cc2ccc(Nc3ncc4c(n3)N(C)c3ccccc3C(=O)N4C)cc2C(F)(F)F)CC1 ?
RESULT: 25

QUERY: Which measured kinase still bound, per cent of control value corresponds to COc1cc(N2CCN(C)CC2)ccc1Nc1nc(N)c(C(=O)c2c(Cl)cccc2Cl)s1 ?
RESULT: 99

QUERY: Which measured kinase still bound, per cent of control value corresponds to COc1cc(C(=O)NC2CCN(C)CC2)ccc1Nc1ncc2c(n1)N(C1CCCC1)CCC(=O)N2C(C)C ?
RESULT: 100

QUERY: Which measured kinase still bound, per cent of control value corresponds to CCOc1cc2ncc(C#N)c(Nc3ccc(OCc4ccccn4)c(Cl)c3)c2cc1NC(=O)/C=C/CN(C)C ?
RESULT: 86

QUERY: Which measured kinase still bound, per cent of control value corresponds to CN(C)C/C=C/C(=O)Nc1cccc(Nc2ncc3c(n2)N(C)c2ccccc2C(=O)N3C)c1 ?
RESULT: 54

----------
# target_desc: PKN2 (human) (UniProt Q16513)
# Sequence (Q16513 whole entry, looked up): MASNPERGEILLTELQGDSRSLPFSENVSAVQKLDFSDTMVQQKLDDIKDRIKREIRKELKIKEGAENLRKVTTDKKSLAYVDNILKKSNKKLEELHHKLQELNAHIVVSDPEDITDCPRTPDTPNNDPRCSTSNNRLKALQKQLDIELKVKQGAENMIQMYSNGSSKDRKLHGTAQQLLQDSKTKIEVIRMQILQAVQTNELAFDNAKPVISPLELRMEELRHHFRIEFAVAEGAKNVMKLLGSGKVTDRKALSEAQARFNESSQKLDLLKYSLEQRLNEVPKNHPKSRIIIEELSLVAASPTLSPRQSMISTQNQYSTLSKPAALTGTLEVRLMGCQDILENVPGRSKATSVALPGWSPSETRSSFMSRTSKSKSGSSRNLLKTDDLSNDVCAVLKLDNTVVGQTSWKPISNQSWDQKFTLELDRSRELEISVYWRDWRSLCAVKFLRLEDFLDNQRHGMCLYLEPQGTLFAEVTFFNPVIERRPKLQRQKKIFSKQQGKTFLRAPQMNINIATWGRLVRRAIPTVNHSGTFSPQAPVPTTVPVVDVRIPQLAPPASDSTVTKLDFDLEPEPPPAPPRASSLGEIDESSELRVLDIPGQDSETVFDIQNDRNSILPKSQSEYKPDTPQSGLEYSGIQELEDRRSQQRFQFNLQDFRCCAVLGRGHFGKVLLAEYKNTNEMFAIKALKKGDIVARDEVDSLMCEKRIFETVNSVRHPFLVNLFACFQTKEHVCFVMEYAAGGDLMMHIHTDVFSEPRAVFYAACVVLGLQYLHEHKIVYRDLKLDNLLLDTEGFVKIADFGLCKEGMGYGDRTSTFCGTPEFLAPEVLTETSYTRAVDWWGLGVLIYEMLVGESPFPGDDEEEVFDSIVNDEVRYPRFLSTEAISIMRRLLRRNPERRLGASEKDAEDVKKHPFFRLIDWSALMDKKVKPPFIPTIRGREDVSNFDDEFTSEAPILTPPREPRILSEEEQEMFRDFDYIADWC
# assay_summary: KINOMEscan competition binding
# condition_parameters: compound 10.0 µM
readout_name: kinase still bound, per cent of control (%)
Quick reminder: number only, in %, skip the unit.

QUERY: Which measured kinase still bound, per cent of control value corresponds to O=C(NOC[C@H](O)CO)c1ccc(F)c(F)c1Nc1ccc(I)cc1F ?
RESULT: 100

QUERY: Which measured kinase still bound, per cent of control value corresponds to CCC(=O)N1CCN(c2ccc(-n3c(=O)ccc4cnc5ccc(-c6cnc7ccccc7c6)cc5c43)cc2C(F)(F)F)CC1 ?
RESULT: 65

QUERY: Which measured kinase still bound, per cent of control value corresponds to CN(C)C/C=C/C(=O)Nc1cccc(Nc2ncc3c(n2)N(C)c2ccccc2C(=O)N3C)c1 ?
RESULT: 64

QUERY: Which measured kinase still bound, per cent of control value corresponds to CCCS(=O)(=O)Nc1ccc(F)c(C(=O)c2c[nH]c3ncc(-c4ccc(Cl)cc4)cc23)c1F ?
RESULT: 92

QUERY: Which measured kinase still bound, per cent of control value corresponds to O=C(NC1CC1)c1cccc(-c2ccc3c(NC(=O)C4CC4)n[nH]c3c2)c1 ?
RESULT: 78

QUERY: Which measured kinase still bound, per cent of control value corresponds to Cc1cc([C@@H](C)Nc2ccccc2C(=O)O)c2nc(N3CCOCC3)cc(=O)n2c1 ?
RESULT: 98
